Molecular target: human α-synuclein (Homo sapiens)
Construct: the full-length gene for untagged human α-synuclein was inserted; made in house; host or cells: E. coli BL21 (DE3)
Assay: Thioflavin T cell-free assay of α-synuclein aggregation
Assay type: biochemical
Details: α-synuclein 50 μM, compounds at 20-50 μM, ThT fluorescence, data from 36 hours; negative = potentiation
REPORTED METRIC: Inhibition of Aggregation, αSyn (%)
Write it as a number; the unit % goes unstated.

Requested field: Inhibition of Aggregation, αSyn. Item: "COc1cc(NC(=O)c2c(-c3cc(OC)c(OC)c(OC)c3)[nH]c3cc(OC)c(OC)c(OC)c3c2=O)cc(OC)c1OC"
−12

So what does the record say about Inhibition of Aggregation, αSyn for "O=C(Nc1ccccc1O)c1c[nH]c2cc(O)c(O)c(O)c2c1=O" ?
63

I am curious: what Inhibition of Aggregation, αSyn value has been reported for "COc1cc(NC(=O)c2c(NC(=O)c3cc(OC)c(OC)c(OC)c3)sc3c2CCCC3)cc(OC)c1" ?
22

Can you share its Inhibition of Aggregation, αSyn? I mean this molecule: "O=C(Nc1cc(O)c(O)c(O)c1)c1c(-c2cc(O)c(O)c(O)c2)[nH]c2cc(O)c(O)c(O)c2c1=O"
98

Which Inhibition of Aggregation, αSyn value belongs to "COc1cc(NC(=O)c2c(N)sc3c2CCCC3)cc(OC)c1OC" ?
3

// query Inhibition of Aggregation, αSyn value for entry "COc1cc(OC)c2c(=O)c(C(=O)Nc3cc(OC)c(OC)c(OC)c3)c[nH]c2c1"
−1

So what's the measured Inhibition of Aggregation, αSyn for this one? "O=C(Nc1ccccc1)c1c[nH]c2cc(O)cc(O)c2c1=O"
49

Need Inhibition of Aggregation, αSyn, item "O=C(Nc1sc2c(c1C(=O)Nc1cc(O)c(O)c(O)c1)CCCC2)c1cc(O)c(O)c(O)c1"
93

====

// reported inhibition at 20 µM per item
Molecular target: E. coli CsgA (Escherichia coli, UniProt P28307)
Construct: 6xHis (C); made in house; host or cells: E. coli NEB 3016 slyD::kan
Sequence (P28307 23-151): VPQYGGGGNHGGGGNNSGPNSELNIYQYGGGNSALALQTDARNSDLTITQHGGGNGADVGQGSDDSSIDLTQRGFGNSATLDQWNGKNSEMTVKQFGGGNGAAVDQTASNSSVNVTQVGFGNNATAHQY
Test: Thioflavin T cell-free assay of CsgA aggregation
Assay type: biochemical
Conditions: read-out: Inhibition of Aggregation, CsgA
Report only the number, with the unit % understood.

Recorded results for 5 molecules are shown here.
Which inhibition at 20 µM reading was recorded for the molecule "O=C(Nc1ccccc1O)c1c[nH]c2cc(O)c(O)c(O)c2c1=O" ?
90

Please give the measured inhibition at 20 µM for this molecule: "O=C(Nc1ccccc1)c1c[nH]c2cc(O)c(O)c(O)c2c1=O"
59

// inhibition at 20 µM lookup, key: "COc1cc(-c2[nH]c3cc(OC)c(OC)c(OC)c3c(=O)c2C(=O)O)cc(OC)c1OC"
-47

For the molecule shown here, "COc1cc(OC)c2c(=O)c(C(=O)Nc3cc(OC)c(OC)c(OC)c3)c[nH]c2c1" , give the reported inhibition at 20 µM.
4

inhibition at 20 µM lookup needed for "O=C(Nc1cccc(O)c1)c1c[nH]c2cc(O)cc(O)c2c1=O" , thanks.
-2

Continuing:
What inhibition at 20 µM value was documented for this molecule, "COc1cc(OC)cc(C(=O)Nc2sc3c(c2C(=O)Nc2cc(OC)c(OC)c(OC)c2)CCCC3)c1" ?
-11

Any idea what its inhibition at 20 µM is? The molecule is "O=C(Nc1sc2c(c1C(=O)Nc1cc(O)c(O)c(O)c1)CCCC2)c1ccccc1"
16

# query: inhibition at 20 µM of entry "O=C(Nc1sc2c(c1C(=O)Nc1ccccc1)CCCC2)c1cc(O)c(O)c(O)c1"
13

I'd like to know its inhibition at 20 µM. The molecule in question is "COc1cc(OC)c2c(=O)c(C(=O)Nc3cccc(O)c3)c[nH]c2c1"
8

Entry "COc1cc(OC)c2c(=O)c(C(=O)Nc3ccccc3)c[nH]c2c1" : reported inhibition at 20 µM = ?
-150

Tell me the measured inhibition at 20 µM of "COc1cc(NC(=O)c2c(NC(=O)c3cc(OC)c(OC)c(OC)c3)sc3c2CCCC3)cc(OC)c1" , please.
-4

Query: inhibition at 20 µM; subject: "O=C(Nc1ccccc1)c1c[nH]c2ccccc2c1=O"
-18

Quick check: inhibition at 20 µM of "COc1cc(NC(=O)c2c(N(C)C(=O)c3cc(OC)c(OC)c(OC)c3)sc3c2CCCC3)cc(OC)c1OC" ?
-16

Fill blank: measured inhibition at 20 µM of the molecule "COc1cc(C(=O)Nc2sc3c(c2C(=O)N(C)c2cc(OC)c(OC)c(OC)c2)CCCC3)cc(OC)c1OC" is ____.
2

If you can, please state the reported inhibition at 20 µM value of "O=C(Nc1cc(O)c(O)c(O)c1)c1c[nH]c2cc(O)cc(O)c2c1=O" .
58

Quick one: inhibition at 20 µM of "COc1cc2[nH]cc(C(=O)Nc3ccccc3)c(=O)c2c(OC)c1OC" ?
-56

Entry under review: "O=C(Nc1cc(O)c(O)c(O)c1)c1c(-c2cc(O)c(O)c(O)c2)[nH]c2cc(O)c(O)c(O)c2c1=O" . Reported inhibition at 20 µM?
64

Param item = "COc1cc(OC)c2c(=O)c(C(=O)Nc3ccc(O)cc3)c[nH]c2c1" ; retrieve measured inhibition at 20 µM.
-20

Return reported inhibition at 20 µM; argument: "COc1cc(OC)c2c(=O)c(C(=O)Oc3cc(OC)c(OC)c(OC)c3)c[nH]c2c1"
-1

Quick check: inhibition at 20 µM of "COc1cc2[nH]cc(C(=O)Nc3ccccc3O)c(=O)c2c(OC)c1OC" ?
-4

Requested field: inhibition at 20 µM. Item: "COc1cc(NC(=O)c2c(NC(=O)c3cc(OC)c(OC)c(OC)c3)sc3c2CCCC3)cc(OC)c1OC"
8

Request the reported inhibition at 20 µM associated with "COc1cc(NC(=O)c2c[nH]c3cc(OC)c(OC)c(OC)c3c2=O)cc(OC)c1OC"
18

Entry under review: "O=C(Nc1sc2c(c1C(=O)Nc1cc(O)c(O)c(O)c1)CCCC2)c1cc(O)c(O)c(O)c1" . Reported inhibition at 20 µM?
45

Which value of inhibition at 20 µM has been reported for "Nc1sc2c(c1C(=O)Nc1cc(O)c(O)c(O)c1)CCCC2" in the records?
31

State the recorded inhibition at 20 µM for this entry: "NC(=O)c1c(NC(=O)c2cc(O)c(O)c(O)c2)sc2c1CCCC2"
52

Fill in the blank: the reported inhibition at 20 µM of "O=C(Nc1ccccc1)c1c[nH]c2cc(O)cc(O)c2c1=O" is ____.
44

I have this molecule here, "COc1cc(OC)c2c(=O)c(C(=O)Nc3ccc(O)c(F)c3)c[nH]c2c1" , and I need its recorded inhibition at 20 µM.
-17
